Exercise: for every item that follows, state its recorded composite z-score.
test system: Sam68 (KHDRBS1); assay: compounds binding KHDRBS1 protein – biochemical, small-molecule microarray, 635 nm fluorescence, primary screen (AID 1125); settings: higher = more signal;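 note: score merges 667 nm channel intensity with signal to noise over triplicate slides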
Number, no unit, nothing else.

Query: composite z-score; subject: `COC(=O)c1c(CC[C@@H](CO)NC(=O)N[C@@H](Cc2ccccc2)Cn2cc(-c3ccccn3)nn2)oc(C(=O)N2CCOCC2)c1C(=O)OC` -0.23

Query: composite z-score; subject: `COC(=O)[C@]1(Cc2ccccc2)N=C(c2ccc(OCCCO)cc2)O[C@@H]1c1ccccc1N=[N+]=[N-]` 0.3

Query: composite z-score; subject: `O=c1cccc(-c2ccccc2Cl)o1` 0.102

Query: composite z-score; subject: `[N-]=[N+]=Nc1ccccc1[C@H]1OC(c2ccc(OCCCO)cc2)=N[C@@]1(Cc1ccccc1)C(=O)N1CCOCC1` 1.29

Query: composite z-score; subject: `C=CCOC(=O)[C@H]1[C@@H]2C(=O)O[C@@H](c3ccccc3)[C@@H](c3ccccc3)N2[C@@H](c2ccc(OCCOC(=O)[C@H]3C[C@H]4C(=O)N[C@@H](CCCCN(C)C)C(=O)N4[C@H]3c3cccc(OCCO)c3)cc2)[C@]12C(=O)Nc1ccc(I)cc12` 1.3

Query: composite z-score; subject: `CCOC(=O)C[C@H]1[C@H](OC(=O)c2ccc(C(=O)c3ccccc3)cc2)[C@@H](NC(=O)Cc2ccc(OC)cc2)c2cc(OCCCO)ccc2N1C(=O)c1ccc2ccccc2n1` 1.09

// data source = PubChem BioAssay
